Reported values of % Inhibition for individual entries
- Tested on: P. falciparum stage V gametocytes
- Set-up: BacTiter-Glo ATP luminescence viability of purified stage V gametocytes in 384-well plates, per cent inhibition versus DMSO
- measurement conditions: 48 h, 5 µM; inhibitor
Out of some 13,000 compounds screened, about 3,200 (25%) showed an effect of 50% or more. This is one part of the list.
Express it in %; write the number only.

These recorded examples may help you get a feel for the data.
INSERT INTO results (compound, unit_of_measure, value_measured) VALUES
  ('CCOc1cc(Cl)c(C(C)NC(=O)c2cccc(OC)c2)cc1OCC (centres unmarked)', '%', 81.4),
  ('CCOc1cc(Br)c(C(C)NC(=O)c2cccc(OC)c2)cc1OCC (centres unmarked)', '%', 47.1),
  ('Cc1cccc(Nc2nccc(NCC(O)c3cccc(C(F)(F)F)c3)n2)c1 (centres unmarked)', '%', 10);

P. falciparum stage V gametocytes assay, compound O=S(=O)(NCCN1CCCC1)c1cccc(-c2cccc(CNCc3ccc(F)cc3)c2)c1 , recorded % Inhibition = 98.39

P. falciparum stage V gametocytes assay, compound CN(C)c1cccc(NC(=O)NC2N=C(c3ccccc3)c3ccccc3N(CC(=O)N(C)c3ccccc3)C2=O)c1 (centres unmarked) , recorded % Inhibition = 33.13

P. falciparum stage V gametocytes assay, compound CS(=O)(=O)c1ccc(CNCc2cccc(-c3cccc(-c4nc5ccc(F)cc5[nH]4)c3)c2)cc1 , recorded % Inhibition = -11.65

P. falciparum stage V gametocytes assay, compound COc1cccc(C(=O)NC(NC(=S)Nc2ccc(OC)cc2[N+](=O)[O-])C(Cl)(Cl)Cl)c1 (centres unmarked) , recorded % Inhibition = 23.91

P. falciparum stage V gametocytes assay, compound CCOc1cc(C(=O)NC2CCN(Cc3ccccc3)CC2)ccc1-c1nc2cc(Cl)c(Cl)cc2[nH]1 , recorded % Inhibition = -6.754

----------
- System: P. falciparum stage V gametocytes
- Parameters: BacTiter-Glo ATP luminescence viability of purified stage V gametocytes in 384-well plates, per cent inhibition versus DMSO
- measurement conditions: 48 h, 5 µM; inhibitor
Screen size: about 13,000 compounds; about 3,200 (25%) showed an effect of 50% or more. The list shows a part of the results.
Reported values of % Inhibition for individual entries
Express it in %; write the number only.

INSERT INTO results (compound, assay_endpoint, value_measured) VALUES
  ('COC(=O)CCn1c(C2CCN(CC3CCC(NC(=O)/C=C/c4ccc(Cl)c(Cl)c4)CC3)CC2)nc2ccccc21 (centres unmarked)', '% Inhibition', -7.996),
  ('Cc1ccc(O)c(-c2cc(C(=O)Nc3ccc(S(=O)(=O)N4CCCC(C)C4)cc3)[nH]n2)c1 (centres unmarked)', '% Inhibition', -32.7);

// field: % Inhibition; key: O=C(Nc1ccc(OC2CCN(Cc3ccsc3)C2)c(Cl)c1)c1cccs1 (centres unmarked) ; value = 17.98

// field: % Inhibition; key: O=c1cc(NC[C@@H]2CCC[C@@H]2NCc2ccc(Cl)c(Cl)c2)[nH]c2ccccc12 ; value = -25.41

----------
- Test system: P. falciparum stage V gametocytes
- Set-up: BacTiter-Glo ATP luminescence viability of purified stage V gametocytes in 384-well plates, per cent inhibition versus DMSO
- measurement conditions: 48 h, 5 µM; inhibitor
Out of some 13,000 compounds screened, about 3,200 (25%) showed an effect of 50% or more. The list shows a part of the results.
Reported values of % Inhibition for individual entries
Express it in %; write the number only.

These recorded examples may help you get a feel for the data.
INSERT INTO measurements (compound, tested_on, value_measured) VALUES
  ('Oc1ccc2[nH]c(-c3ccc(OC(F)(F)F)cc3)nc2c1CNC1CCCC1', 'P. falciparum stage V gametocytes', -82.26),
  ('COc1ccc2nccc([C@@H](O)CN3CCC(NCc4ccc5c(c4)nnn5C(C)C)CC3)c2c1', 'P. falciparum stage V gametocytes', -16.76),
  ('NS(=O)(=O)c1cccc(Nc2nccc(-c3cnn4ncccc34)n2)c1', 'P. falciparum stage V gametocytes', -22.3),
  ('CO/C(=C\C=C\c1cc2cc(Cl)c(Cl)cc2[nH]1)C(=O)NCCCN1CCN(c2ccncc2)CC1', 'P. falciparum stage V gametocytes', 16.21),
  ('CC(=O)c1ccc(N2C(=O)C3C(Cc4ccc(OC(C)(C)C)cc4)NC4(C(=O)N(Cc5ccc(C(C)(C)C)cc5)c5ccccc54)C3C2=O)cc1 (stereo not shown)', 'P. falciparum stage V gametocytes', 1.15),
  ('CN(C)c1ccc(CN2CCC(CNC(=O)c3cc(-c4ccccc4F)cs3)C2)cc1.O=C(O)C(F)(F)F (stereo not shown)', 'P. falciparum stage V gametocytes', 72.61);

Would you kindly look at the next entry?
// field: % Inhibition; key: CC[C@H]1CN2CC[C@H]1C[C@H]2[C@@H](O)c1cc(OCCCN(C)C)nc2ccc(OC)cc12 ; value = 22.54
